Target: T1, human Trop2 on cells (human, UniProt P09758 27-323)
T1 sequence (looked up): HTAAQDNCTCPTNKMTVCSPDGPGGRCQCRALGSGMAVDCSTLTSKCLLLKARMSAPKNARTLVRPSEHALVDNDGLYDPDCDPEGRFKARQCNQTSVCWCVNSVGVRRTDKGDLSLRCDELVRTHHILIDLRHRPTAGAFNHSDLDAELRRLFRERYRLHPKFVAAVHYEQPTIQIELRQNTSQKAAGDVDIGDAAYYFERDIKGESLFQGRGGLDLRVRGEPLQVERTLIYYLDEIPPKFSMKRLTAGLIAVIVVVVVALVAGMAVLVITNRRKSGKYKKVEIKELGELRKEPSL
Assay: cell-based or functional assay
observed property: ADCP (Donor A1925144#) Maximum phagocytosis % (%)
State the answer as a number, implicitly in %.

binder	endpoint result
PR001142 (antibody, human IgG1, kappa, V domains shown, fully human IgG1/kappa; also called antibody No. (9)) VH: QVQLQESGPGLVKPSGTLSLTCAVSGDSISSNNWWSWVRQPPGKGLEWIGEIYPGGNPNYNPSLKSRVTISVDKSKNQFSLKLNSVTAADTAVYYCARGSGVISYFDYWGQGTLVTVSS VL: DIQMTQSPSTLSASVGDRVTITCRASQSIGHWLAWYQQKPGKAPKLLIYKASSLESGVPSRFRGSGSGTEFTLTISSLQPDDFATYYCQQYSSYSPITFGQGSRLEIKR	12
PR001166 (antibody, human IgG1, kappa, V domains shown, fully human IgG1/kappa; also called antibody No. (27)) VH: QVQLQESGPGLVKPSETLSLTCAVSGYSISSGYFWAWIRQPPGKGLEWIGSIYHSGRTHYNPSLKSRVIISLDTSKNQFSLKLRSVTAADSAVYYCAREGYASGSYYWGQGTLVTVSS VL: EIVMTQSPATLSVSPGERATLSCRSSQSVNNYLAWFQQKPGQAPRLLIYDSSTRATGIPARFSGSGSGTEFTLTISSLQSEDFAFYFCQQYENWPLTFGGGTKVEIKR	9.33
PR001165 (antibody, human IgG1, kappa, V domains shown, fully human IgG1/kappa; also called antibody No. (26)) VH: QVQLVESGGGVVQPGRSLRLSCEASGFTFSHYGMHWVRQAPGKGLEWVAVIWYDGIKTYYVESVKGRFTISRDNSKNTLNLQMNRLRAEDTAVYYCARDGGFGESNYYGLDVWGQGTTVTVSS VL: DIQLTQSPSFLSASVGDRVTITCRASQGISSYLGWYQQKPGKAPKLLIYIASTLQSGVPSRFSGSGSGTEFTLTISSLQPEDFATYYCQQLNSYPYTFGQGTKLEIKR	12.5

Item: comparative example 2 antibody Tab (hRS7) (antibody, human IgG1, kappa, V domains shown, prepared on the basis of sacituzumab govitecan (ChemPartner, #T07-001); naked antibody) VH: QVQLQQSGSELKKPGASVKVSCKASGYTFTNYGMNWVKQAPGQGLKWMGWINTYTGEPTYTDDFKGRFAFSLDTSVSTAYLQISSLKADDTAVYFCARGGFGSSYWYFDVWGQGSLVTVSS VL: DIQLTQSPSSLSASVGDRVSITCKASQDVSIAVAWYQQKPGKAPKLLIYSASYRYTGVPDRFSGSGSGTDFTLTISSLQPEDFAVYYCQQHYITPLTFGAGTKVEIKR | ADCP (Donor A1925144#) Maximum phagocytosis %: 14.8
